Where do the numbers come from? From paper PMC5540273.

# Test system: IKK-epsilon
# Construct: gene IKBKE
# EXPERIMENTAL SETUP: concentration: 1 μM,replicates: in singlicate; n = 1;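 further: KINOMEscan kinase panel screen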
QUANTITY MEASURED: %Inh (%)
The response must be a number in % with no trailing unit.

Use these answered entries as a reference point.
1) O=C(Nc1cccc(C(F)(F)F)c1)c1cccc(Oc2ccc3nccn3n2)c1 0
2) CN(c1ccc2c(c1)nc(NCc1ccc(F)cc1)n2C)c1ccnc(Nc2ccc(CS(C)(=O)=O)cc2)n1.Cl 0
3) COc1cccc(C2=C(Nc3cccc(Cl)c3)C(=O)NC2=O)c1 0

// query %Inh value for entry c1ccc(Oc2ccc(Nc3ccnc4ccc(-c5ccccn5)cc34)cc2)cc1
11

// query %Inh value for entry C[C@@H](Oc1cc(-n2cnc3cc(-c4ccncc4)ccc32)sc1C(N)=O)c1ccccc1Cl
0

// query %Inh value for entry CC(=O)c1c(-c2ccncc2)[nH]c(-c2ccncc2)c1C
2

// query %Inh value for entry C[C@@H]1CNc2c(sc3ccc4nc(-c5ccc(O)cc5)ccc4c23)C(=O)N1
14

// query %Inh value for entry O=C(Nc1ccc(Oc2ccc3nc(NC(=O)C4CC4)cn3n2)c(F)c1)c1cccn(-c2ccccc2)c1=O
0

###

# System: IRAK3
# EXPERIMENTAL SETUP: concentration: 1 μM,replicates: in singlicate; n = 1
QUANTITY MEASURED: %Inh (%)
The response must be a number in % with no trailing unit.

Use these answered entries as a reference point.
COMPOUND	%Inh (%)
Cc1ccc(Nc2ccnc(Nc3ccc4c(c3)CS(=O)(=O)C4)n2)cc1O.Cl [GW579362]	91
Nc1nccc(-c2ccc3c(N)n[nH]c3c2)n1 [GSK1034945]	33
O=c1[nH]cc(-c2ccc(O)cc2)c2sc(-c3ccncc3)cc12 [GSK1033723]	1
C[C@@H](Oc1cc(-n2cnc3cc(-c4ccncc4)ccc32)sc1C(N)=O)c1ccccc1Cl [GSK479719]	0

// query %Inh value for entry C[C@@H]1CCN(C(=O)N2CCCC2)C[C@@H]1N(C)c1ncnc2[nH]ccc12
8

// query %Inh value for entry CCOC(=O)N1CCC(n2cnc(-c3ccc(F)cc3)c2-c2ccnc(N)n2)CC1 [SB-219952]
19

// query %Inh value for entry CS(=O)(=O)Nc1ccc(-c2ccnc3[nH]ccc23)cc1 [GSK993273]
49

###

Entries annotated with measured %Inh
# Tested on: CDK9
# EXPERIMENTAL SETUP: concentration: 1 μM,replicates: in singlicate; n = 1
The response must be a number in % with no trailing unit.

COMPOUND	NUMERIC RESULT
Cc1ccc2c(-c3ccnc(Nc4ccc(C(F)(F)F)cc4)n3)cnn2n1 [GW819776]	23
Cn1ccc2ncnc(Oc3ccc(NC(=O)Nc4cnn(C(C)(C)C)c4)c(Cl)c3)c21	0
O=C(Nc1ccccc1)c1cccc(Oc2ccc3nccn3n2)c1	94.6

Next compound, %Inh to be filled in.
// query %Inh value for entry NC(=O)Nc1sc(-c2ccc(F)cc2)cc1C(N)=O [GW789449]
0

###

# Tested on: MARK4
# EXPERIMENTAL SETUP: concentration: 1 μM,replicates: in singlicate; n = 1
Entries annotated with measured %Inh
Quote the value and follow it with the unit of measurement.

Use these answered entries as a reference point.
COMPOUND	TESTED SYSTEM	RESULT
C[C@@H]1CNc2c(sc3ccc4nc(-c5ccc(O)cc5)ccc4c23)C(=O)N1	MARK4	17%
O=C(NOCC1CC1)c1cc(Br)c(F)c(F)c1Nc1ccc(I)cc1Cl	MARK4	0%
C[C@@H](Oc1cc(-n2cnc3cc(-c4cnn(C)c4)ccc32)sc1C(N)=O)c1ccccc1Cl [GSK580432]	MARK4	59%

// query %Inh value for entry COc1cccc(CNC(=O)NC2CCN(c3ccnc(Nc4cc(OC)c(OC)c(OC)c4)n3)C2)c1 (stereo not drawn) [GSK1379765]
1%

// query %Inh value for entry CN(c1cccc(CNc2nc(Nc3ccc4c(c3)CC(=O)N4)ncc2C(F)(F)F)c1)S(C)(=O)=O
56%

// query %Inh value for entry CNC(=O)c1ccccc1Nc1nc(Nc2cccc(CS(C)(=O)=O)c2)ncc1C.O=CO [GSK1520489]
92.3%

// query %Inh value for entry CC(=O)c1c(-c2ccncc2)[nH]c(-c2ccncc2)c1C [GW493036]
0%

// query %Inh value for entry CSc1nccc(-c2c(-c3ccc(F)cc3)ncn2CCCN2CCOCC2)n1.Cl [SB-217146]
20%

// query %Inh value for entry CCOC(=O)N1CCC(n2cnc(-c3ccc(F)cc3)c2-c2ccnc(N)n2)CC1 [SB-219952]
28%

###

# System: BRSK1
# EXPERIMENTAL SETUP: concentration: 1 μM,replicates: in singlicate; n = 1
Entries annotated with measured %Inh
The response must be a number in % with no trailing unit.

// query %Inh value for entry COc1cccc(OC)c1C(=O)Nc1cccc(-c2nn3ccccc3c2-c2ccnc(Nc3cccc(F)c3)n2)c1
0

// query %Inh value for entry Cl.Cl.NC[C@H](CC1CCCCC1)NC(=O)c1ccc(-c2ccnc3[nH]ccc23)s1
11

// query %Inh value for entry N#Cc1cccc(C(=O)NC2CCN(c3ccnc(Nc4ccc(F)cc4)n3)C2)c1 (centres unmarked)
0

// query %Inh value for entry Cc1ccc(C(=O)Nc2ccc(Oc3ccc4nc(NC(=O)C5CC5)cn4c3)c(F)c2)c(=O)n1-c1ccccc1
0

// query %Inh value for entry C[C@@H]1CNc2c(sc3ccc4nc(-c5ccc(O)cc5)ccc4c23)C(=O)N1
48

// query %Inh value for entry O=C(Nc1n[nH]c2cc(-c3ccco3)ccc12)C1CC1
31

// query %Inh value for entry FC(F)(F)c1cc(Br)cc(Nc2nccc(-c3cnn4ncccc34)n2)c1
0

// query %Inh value for entry CCOC(=O)N1CCC(n2cnc(-c3ccc(F)cc3)c2-c2ccnc(N)n2)CC1
0

###

# Tested on: PRKD3
# EXPERIMENTAL SETUP: concentration: 1 μM,replicates: in singlicate; n = 1
Use 70% as the dividing line for %Inh, with the line itself on the Y side and lower values as N.

State whether the measured %Inh reaches 70%, counting equality as reaching it, for CCNCC(Cc1ccccc1)NC(=O)c1cc(Br)c(-c2ccnc3[nH]ccc23)s1.Cl.Cl (stereo not drawn)
Y

State whether the measured %Inh reaches 70%, counting equality as reaching it, for CC(=O)c1c(-c2ccncc2)[nH]c(-c2ccncc2)c1C
Y

State whether the measured %Inh reaches 70%, counting equality as reaching it, for Cc1ccc(C(=O)Nc2ccc(Oc3ccc4nc(NC(=O)C5CC5)cn4c3)c(F)c2)c(=O)n1-c1ccccc1
N

State whether the measured %Inh reaches 70%, counting equality as reaching it, for Cn1ccc2ncnc(Oc3ccc(NC(=O)Nc4cccc(C(F)(F)F)c4)c(F)c3)c21
N

State whether the measured %Inh reaches 70%, counting equality as reaching it, for COc1cc2nccc(Nc3ccc(Oc4ccccc4)cc3)c2cc1OC.Cl
N

State whether the measured %Inh reaches 70%, counting equality as reaching it, for Cc1ccc(Nc2ccnc(Nc3ccc4c(c3)CS(=O)(=O)C4)n2)cc1O.Cl
Y

###

# System: IRAK1
# EXPERIMENTAL SETUP: concentration: 1 μM,replicates: in singlicate; n = 1
Entries annotated with measured %Inh
The response must be a number in % with no trailing unit.

Use these answered entries as a reference point.
1) C[C@@H](Oc1cc(-n2cnc3cc(-c4cnn(C)c4)ccc32)sc1C(N)=O)c1ccccc1Cl 45
2) C[C@@H](Oc1cc(-n2cnc3cc(-c4ccncc4)ccc32)sc1C(N)=O)c1ccccc1Cl 48

Next molecule, %Inh to be filled in.
// query %Inh value for entry CCN1CCN(CCCC(=O)Nc2n[nH]c3nc(-c4ccc(O)cc4)c(Br)cc23)CC1
0

###

Entries annotated with measured %Inh
# Tested on: CLK2
# EXPERIMENTAL SETUP: concentration: 1 μM,replicates: in singlicate; n = 1
The response must be a number in % with no trailing unit.

Use these answered entries as a reference point.
COMPOUND	TESTED SYSTEM	%Inh [%]
C[C@@H]1CNc2c(sc3ccc4nc(-c5ccncc5)ccc4c23)C(=O)N1	CLK2	94
Cc1cccc2c(-c3ccncc3)c(-c3ccc(F)cc3)nn12.Cl	CLK2	0
CC(C(=O)NC1CCN(c2ccnc(Nc3ccc(F)cc3)n2)C1)c1ccc(Cl)cc1 (stereo not drawn)	CLK2	0
CN1CCN(CCCNc2nccc(-c3c(-c4ccc(F)cc4)nn4cc(C(N)=O)ccc34)n2)CC1	CLK2	0
c1ccc(Oc2ccc(Nc3ccnc4ccc(-c5ccccn5)cc34)cc2)cc1	CLK2	0

// query %Inh value for entry NC(=O)Nc1sc(-c2ccc(F)cc2)cc1C(N)=O
0

// query %Inh value for entry CC(=O)c1c(-c2ccncc2)[nH]c(-c2ccncc2)c1C
82

// query %Inh value for entry CN(c1cccc(CNc2nc(Nc3ccc4c(c3)CC(=O)N4)ncc2C(F)(F)F)c1)S(C)(=O)=O
26

// query %Inh value for entry COc1ccc(Nc2nccc(N3CCC(NC(=O)c4cccc(C#N)c4)C3)n2)cc1 (stereo not drawn)
0
